Each entry below carries its reported kon.
biological target: T1, Purified recombinant human CD26 (rhDipeptidyl peptidase IV), R&D Systems CAT #1180-SE (human, UniProt P27487 29-766); test: SPR (Biacore), Fab
T1 construct: Bought recombinant protein; also called hu-CD26; soluble human CD26
T1 sequence (P27487 29-766 limits assumed): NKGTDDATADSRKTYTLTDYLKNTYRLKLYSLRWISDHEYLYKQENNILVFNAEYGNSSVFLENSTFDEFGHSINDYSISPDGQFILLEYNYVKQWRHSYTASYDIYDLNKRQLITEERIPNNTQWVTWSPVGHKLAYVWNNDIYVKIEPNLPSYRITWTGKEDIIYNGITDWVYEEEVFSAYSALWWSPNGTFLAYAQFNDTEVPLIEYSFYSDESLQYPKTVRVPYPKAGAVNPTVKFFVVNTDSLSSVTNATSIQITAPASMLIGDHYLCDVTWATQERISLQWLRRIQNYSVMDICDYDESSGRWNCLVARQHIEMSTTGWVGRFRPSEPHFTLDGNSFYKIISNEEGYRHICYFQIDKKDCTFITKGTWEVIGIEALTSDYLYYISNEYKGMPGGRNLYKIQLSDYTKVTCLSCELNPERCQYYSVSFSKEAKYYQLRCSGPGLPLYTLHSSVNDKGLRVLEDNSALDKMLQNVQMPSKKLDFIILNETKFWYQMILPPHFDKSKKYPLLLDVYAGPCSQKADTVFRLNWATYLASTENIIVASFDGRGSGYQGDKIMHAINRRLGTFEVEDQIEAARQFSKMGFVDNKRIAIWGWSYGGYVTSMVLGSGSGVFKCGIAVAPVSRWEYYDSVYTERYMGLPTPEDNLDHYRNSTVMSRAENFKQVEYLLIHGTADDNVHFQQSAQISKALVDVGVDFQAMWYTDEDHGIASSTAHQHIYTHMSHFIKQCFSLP
Answer format: numeric, M⁻¹ s⁻¹ implied, no suffix.

Fab comprising X381 VL and CM03 VH (Fab, V domains shown, Fab made in E. coli) VH: QVKLQESGPGLVQPSQTLSITCTVSGFSLTTYGVHWVRQSPGKGLEWLGVIWGGGRTDYDAAFISRLSISKDNSKSQVFFKMNSLQANDTAIYYCVRNRHDWFDYWGQGTTVTVSS VL: EIELTQSPSSLSVSPGDRVTISCSASQGIRNSLNWYQQKPGQAPRLLIYYSSNLHTGVPARFSGSGSGTDFTLTISRLQAEDFATYYCQQSIKLPLTFGSGTKVEIK | 293000

Now for a further binder.
Lookup: What value of measured kon is listed for Fab comprising X376 VL and CM03 VH (Fab, V domains shown, Fab made in E. coli) VH: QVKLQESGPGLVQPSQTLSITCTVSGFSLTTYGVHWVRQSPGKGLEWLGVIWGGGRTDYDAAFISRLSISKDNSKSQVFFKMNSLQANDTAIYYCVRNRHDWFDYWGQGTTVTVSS VL: DILMTQSPSSLSASPGDRVTISCRASQDIRNNLNWYQQKPGQAPRLLIYYSSNLHSGVPDRFSGSGSGTDFTLTISRLEPEDFAAYYCQQSIKLPLTFGSGTKVEIK ?
Found: 258000
